experiment: Physical form of choline-based ionic liquids at room temperature; type: physicochemical; conditions: cation:anion 1:2, room temperature
observable: Physical Form (Ratios Listed as Cation:Anion)

For orientation, consider the following solved cases.
| compound | meas_value |
| --- | --- |
| CCCCC/C=C/C(=O)O [Trans-2-Octenoic Acid] | Liquid at 1:1, 1:2 |
| CCCCCCCCCC(=O)O | Solid |
| O=P(O)(O)O | Liquid |
| CC(C)=CCCC(C)CC(=O)O (stereo not shown) | Liquid at 2:1, 1:1, 1:2 |
| Cc1ccc(S(=O)(=O)O)cc1 | Liquid |
| CCCCCCCC/C=C\CCCCCCCC(=O)O | Solid at 1:1, 1:2 |

Physical Form (Ratios Listed as Cation:Anion) for "O=C(O)CCC(=O)O" ?
Liquid at 2:1, 1:1, 1:2

Physical Form (Ratios Listed as Cation:Anion) for "CC(=O)C(=O)O" ?
Liquid at 1:1, 1:2

Physical Form (Ratios Listed as Cation:Anion) for "CC(=O)O" ?
Liquid at 2:1, 1:1, 1:2

Physical Form (Ratios Listed as Cation:Anion) for "CCCCCCCCC(=O)O" ?
Solid at 1:1, 1:2

Physical Form (Ratios Listed as Cation:Anion) for CCCC/C=C/CC(=O)O [Trans-3-Octenoic Acid] ?
Liquid at 1:1, 1:2

Physical Form (Ratios Listed as Cation:Anion) for CC(O)C(=O)O (stereo not shown) ?
Liquid at 1:1, 1:2
